Data credit: paper PMC3168947

- Experimental System: T1, D20 ClpS with ClpA6 (E. coli, UniProt P0ABH9 1-758; P0A8Q6 20-106)
- T1 sequence (looked up) 1: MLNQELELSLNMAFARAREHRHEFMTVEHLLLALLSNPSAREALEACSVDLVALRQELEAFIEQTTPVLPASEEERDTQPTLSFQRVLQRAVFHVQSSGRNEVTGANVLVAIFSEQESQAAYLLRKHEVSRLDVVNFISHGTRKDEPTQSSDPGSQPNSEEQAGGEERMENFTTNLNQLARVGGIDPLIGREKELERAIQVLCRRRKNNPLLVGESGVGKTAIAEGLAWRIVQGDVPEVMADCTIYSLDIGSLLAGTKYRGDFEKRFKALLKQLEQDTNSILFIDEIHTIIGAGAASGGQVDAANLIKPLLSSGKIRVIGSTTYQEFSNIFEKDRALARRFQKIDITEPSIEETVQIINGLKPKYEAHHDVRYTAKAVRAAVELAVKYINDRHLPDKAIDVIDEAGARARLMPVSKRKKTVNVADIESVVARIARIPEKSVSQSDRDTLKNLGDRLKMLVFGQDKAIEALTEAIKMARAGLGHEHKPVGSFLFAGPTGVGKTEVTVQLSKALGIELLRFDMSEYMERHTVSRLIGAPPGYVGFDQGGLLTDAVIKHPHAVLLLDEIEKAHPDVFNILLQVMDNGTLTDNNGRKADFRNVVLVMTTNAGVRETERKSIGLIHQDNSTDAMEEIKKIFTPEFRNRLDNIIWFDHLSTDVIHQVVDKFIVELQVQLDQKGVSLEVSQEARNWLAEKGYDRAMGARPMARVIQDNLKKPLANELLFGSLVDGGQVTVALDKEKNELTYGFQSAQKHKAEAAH
- T1 sequence (looked up) 2: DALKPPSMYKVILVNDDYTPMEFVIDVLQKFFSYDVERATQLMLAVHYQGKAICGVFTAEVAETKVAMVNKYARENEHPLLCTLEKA
- Assay Method Text: fluorescence polarisation
No end group written: not given here.
Measurement Kind: Kd (nM)

In [3]: df
Out[3]:
                                     binder  val
0  LLYVQRDSKEC(fluorescein maleimide) [fluorescent N-end-rule peptide LLYVQRDSKEC-fl]  130
